Just for reference, paper doi:10.1101/327866 is where these values come from.

Target: Ara h 2, purified natural peanut allergen (Arachis hypogaea (peanut), cultivar not …, UniProt Q6PSU2)
Assay: BLI
quantity_measured: binding result

binder	value_reported
PA13P1H08 variant: only the heavy chain CDR1 reverted to the inferred naive rearrangement, native light chain (antibody, V domains shown) VH: QVQLVNSGGGVVQPGRSLRLSCVASGFTFSSYGIHWVRQAPGKGLEWVAVISNDGEKSESADSVKGRFTPSRDNSKNTVYLQMNNLRVEDTAVYYCAKVLDYSRYSYYYGMDVWGQGTTVIVSS VL: EIVLTQSPGTLSLSPGGRGTLSCRTSQTINNAHLAWYQHKPGQAPRLLIYGSSERATGVPDRFSGSGSGSDFTLTISSLEAEDFAVYYCQHYGRSPPYTFGPGTKLDIK	binds
